Just for reference, patent US20250034125A1 is where these values come from.

tested.on: SCD5 (Homo sapiens, UniProt Q86SK9)
Construct: host or cells: Saccharomyces cerevisiae ole1Δ strain (W303 pdr1Δ pdr3Δ background), plasmid pRS316, TDH3 promoter
Sequence (Q86SK9 1-330): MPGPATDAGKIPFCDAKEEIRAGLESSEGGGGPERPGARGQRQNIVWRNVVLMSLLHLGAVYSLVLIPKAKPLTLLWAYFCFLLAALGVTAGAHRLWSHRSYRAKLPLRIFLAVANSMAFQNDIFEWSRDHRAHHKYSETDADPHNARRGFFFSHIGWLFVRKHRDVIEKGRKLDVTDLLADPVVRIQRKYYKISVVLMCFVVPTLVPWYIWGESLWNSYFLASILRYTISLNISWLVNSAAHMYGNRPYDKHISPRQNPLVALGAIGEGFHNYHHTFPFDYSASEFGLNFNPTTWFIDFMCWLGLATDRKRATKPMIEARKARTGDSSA
experimental.details: Growth inhibition of yeast (ole1Δ) expressing human SCD5 as the sole desaturase
Format: cell-based
cond: yeast strain with SCD5 plasmid, OD600 growth read at 40 h; read-out: SCD5 IC50
For each entry below, report its pIC50 value.
Numbers only, as −log10 of the molar value.

>  <compound>
Cn1nc(CC(=O)N2CCC(Cc3cccc(Cl)c3)CC2)ccc1=O [Compound 37]

>  <tested.on>
SCD5 (Homo sapiens, UniProt Q86SK9)

>  <pIC50>
5.36

$$$$
>  <compound>
Cn1nc(NC(=O)N2CCC(Cc3cc(F)c(F)c(C#N)c3)CC2)ccc1=O [Compound 65]

>  <tested.on>
SCD5 (Homo sapiens, UniProt Q86SK9)

>  <pIC50>
5.83

$$$$
>  <compound>
Cn1nc(NC(=O)N2CCC(=Cc3cc(F)cc(F)c3)CC2)ccc1=O [Compound 33]

>  <tested.on>
SCD5 (Homo sapiens, UniProt Q86SK9)

>  <pIC50>
6.85

$$$$

Give measured pIC50 for every item shown.
1. Cn1nc(NC(=O)N2CCC(Oc3cccc(Cl)c3Cl)CC2)ccc1=O [Compound 81]
2. Cn1nc(NC(=O)N2CC(Oc3cc(F)cc(F)c3)C2)ccc1=O [Compound 24]
3. Cn1nc(NC(=O)N2CCC[C@@H](c3cc(F)cc(F)c3)CC2)ccc1=O [Compound 32]

Out:
6.82
5.54
4.68
